- TARGET: recombinant PRL-2 (Homo sapiens, UniProt Q12974)
- Construct: 6xHis (N, cleaved yes); made in house; host or cells: E. coli One Shot BL21 Star
- Sequence (Q12974 whole entry): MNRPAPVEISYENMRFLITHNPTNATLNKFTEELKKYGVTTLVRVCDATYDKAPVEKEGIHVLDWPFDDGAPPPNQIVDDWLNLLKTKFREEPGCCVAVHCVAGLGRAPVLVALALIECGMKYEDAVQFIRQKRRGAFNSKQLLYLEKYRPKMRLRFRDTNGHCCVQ
- PROTOCOL_TEXT: In vitro phosphatase assay (DiFMUP hydrolysis), PRL-2
- Assay type: biochemical
- PARTICULARS: FDA-approved drug screen; compared to DMSO
MEASURED_QUANTITY: % Phosphatase Activity (compared to DMSO) PRL-2 (%)
Kindly provide the numeric value in % only, without the unit symbol.

MOLECULE: CC(=O)NS(=O)(=O)c1ccc(NC(=O)c2ccccc2C(=O)O)cc1 [Phthalylsulfacetamide]
VALUE: 120
--
MOLECULE: CC1(C)S[C@@H]2[C@H](NC(=O)Cc3ccccc3)C(=O)N2[C@H]1C(=O)O [Penicillin G Sodium]
VALUE: 105
--
MOLECULE: O=C1CN(/N=C/c2ccc(-c3ccc([N+](=O)[O-])cc3)o2)C(O)=N1 [Dantrolene sodium]
VALUE: 75
--
MOLECULE: CCC1(c2ccccc2)C(=O)NCNC1=O
VALUE: 93
--
MOLECULE: COC(=O)N[C@H](C(=O)N1CCC[C@H]1c1ncc(-c2ccc(-c3ccc(-c4cnc([C@@H]5CCCN5C(=O)[C@@H](NC(=O)OC)C(C)C)[nH]4)cc3)cc2)[nH]1)C(C)C
VALUE: 324

Task: Assign % Phosphatase Activity (compared to DMSO) PRL-2 to the following record: `CCN1CCN(C(=O)N[C@@H](C(=O)N[C@@H]2C(=O)N3C(C(=O)O)=C(CSc4nnnn4C)CS[C@H]23)c2ccc(O)cc2)C(=O)C1=O`
Result: 94

Task: // fetch % Phosphatase Activity (compared to DMSO) PRL-2 given entry CC[C@H]1OC(=O)[C@H](C)[C@@H](O[C@H]2C[C@@](C)(OC)[C@@H](O)[C@H](C)O2)[C@H](C)[C@@H](O[C@@H]2O[C@H](C)C[C@H](N(C)C)[C@H]2O)[C@](C)(O)C[C@@H](C)CN(C)[C@H](C)[C@@H](O)[C@]1(C)O [Azithromycin]
Result: 94

Task: Note % Phosphatase Activity (compared to DMSO) PRL-2 for the molecule shown: `CCOC(=O)[C@H](CCc1ccccc1)N[C@@H](C)C(=O)N1[C@H](C(=O)O)C[C@@H]2CCC[C@@H]21`
Result: 86

Task: Supply recorded % Phosphatase Activity (compared to DMSO) PRL-2 for CC(C)(C)NCC(O)c1ccc(O)c(CO)c1.CC(C)(C)NCC(O)c1ccc(O)c(CO)c1.O=S(=O)(O)O (stereo not drawn) [Salbutamol Sulfate] here.
Result: 90

Task: Hello, please tell me recorded % Phosphatase Activity (compared to DMSO) PRL-2 for this one: Nc1cccc2c1CN(C1CCC(=O)NC1=O)C2=O (stereo not drawn) [Lenalidomide (CC-5013)]
Result: 95

Task: For `O=C(O)c1cc(-c2ccccc2)nc2ccccc12` , write its % Phosphatase Activity (compared to DMSO) PRL-2.
Result: 101

Task: Assign % Phosphatase Activity (compared to DMSO) PRL-2 to the following record: `CC1=C(/C=C/C(C)=C/C=C/C(C)=C\C(=O)O)C(C)(C)CCC1`
Result: 71

###

- TARGET: recombinant PRL-1 (Homo sapiens)
- Construct: 6xHis (N, cleaved yes); made in house; host or cells: E. coli One Shot BL21 Star
- Sequence (Q93096 whole entry): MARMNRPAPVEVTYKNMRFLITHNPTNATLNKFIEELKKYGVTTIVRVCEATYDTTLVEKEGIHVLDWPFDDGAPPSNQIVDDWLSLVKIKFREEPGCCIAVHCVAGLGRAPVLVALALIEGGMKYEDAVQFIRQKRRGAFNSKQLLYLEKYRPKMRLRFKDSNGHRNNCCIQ
- PROTOCOL_TEXT: In vitro phosphatase assay (DiFMUP hydrolysis), PRL-1; note: test concentration or dose not given here
- Assay type: biochemical
- PARTICULARS: FDA-approved drug screen; compared to DMSO
# % Phosphatase Activity (compared to DMSO) PRL-1 annotations
Your answer should be a plain number; it is taken to be in %.

Worked examples, 8 compounds total:
COMPOUND: O=C(CCNNC(=O)c1ccncc1)NCc1ccccc1 [Nialamide]
TARGET: recombinant PRL-1 (Homo sapiens)
VALUE: 95
--
COMPOUND: CN1CCc2nc(C(=O)N[C@@H]3C[C@@H](C(=O)N(C)C)CC[C@@H]3NC(=O)C(=O)Nc3ccc(Cl)cn3)sc2C1
TARGET: recombinant PRL-1 (Homo sapiens)
VALUE: 110
--
COMPOUND: CC(C)(CO)[C@@H](O)C(=O)NCCCO
TARGET: recombinant PRL-1 (Homo sapiens)
VALUE: 93
--
COMPOUND: COC(c1ccccc1)(c1ccccc1)[C@H](Oc1nc(C)cc(C)n1)C(=O)O
TARGET: recombinant PRL-1 (Homo sapiens)
VALUE: 94
--
COMPOUND: COc1cc2nccc(Oc3ccc(NC(=O)NC4CC4)c(Cl)c3)c2cc1C(N)=O [Lenvatinib (E7080)]
TARGET: recombinant PRL-1 (Homo sapiens)
VALUE: 96
--
COMPOUND: CS(=O)(=O)c1ccc(C2=C(c3ccccc3)C(=O)OC2)cc1
TARGET: recombinant PRL-1 (Homo sapiens)
VALUE: 110
--
COMPOUND: N.N.O=C([O-])C1(C(=O)[O-])CCC1.[Pt+2]
TARGET: recombinant PRL-1 (Homo sapiens)
VALUE: 90
--
COMPOUND: Cl.NCC(=O)CCC(=O)O [5-Aminolevulinic acid HCl]
TARGET: recombinant PRL-1 (Homo sapiens)
VALUE: 106

Okay, next one:
Task: Give measured % Phosphatase Activity (compared to DMSO) PRL-1 for COc1ccc(C(=O)NCc2ccc(OCCN(C)C)cc2)cc1OC.Cl [Itopride hydrochloride] (recombinant PRL-1 (Homo sapiens)).
Result: 95

###

- TARGET: recombinant PRL-2 (Homo sapiens)
- Construct: 6xHis (N, cleaved yes); made in house; host or cells: E. coli One Shot BL21 Star
- PROTOCOL_TEXT: In vitro phosphatase assay (DiFMUP hydrolysis), PRL-2;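 note: PRL-2 activity read as DiFMUP hydrolysis after 20 min at room temperature with drug, enzyme first pre-reduced at 4 °C for 20 min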
- Assay type: biochemical
- PARTICULARS: FDA-approved drug screen; activity compared to DMSO
Counter-ions that a name gives are not always drawn.
MEASURED_QUANTITY: % Phosphatase Activity (compared to DMSO) PRL-2 (%)
Field: numeric (%). Do not append units.

Some molecules with known % Phosphatase Activity (compared to DMSO) PRL-2 results, for comparison:
MOLECULE: CCC(COC(=O)c1cc(OC)c(OC)c(OC)c1)(c1ccccc1)N(C)C (centres unmarked) [Trimebutine]
TARGET: recombinant PRL-2 (Homo sapiens)
VALUE: 106
//
MOLECULE: c1ccc(CC2=NCCN2)cc1 [Tolazoline HCl]
TARGET: recombinant PRL-2 (Homo sapiens)
VALUE: 110
//
MOLECULE: CCCCNC(=O)NS(=O)(=O)c1ccc(C)cc1 [Tolbutamide]
TARGET: recombinant PRL-2 (Homo sapiens)
VALUE: 119
//
MOLECULE: C=C1CC[C@H](O)C/C1=C/C=C1\CCC[C@]2(C)[C@@H]([C@H](C)CCCC(C)C)CC[C@@H]12 [Vitamin D3]
TARGET: recombinant PRL-2 (Homo sapiens)
VALUE: 95
//
MOLECULE: COc1cc2c(cc1OC)C1CC(=O)C(CC(C)C)CN1CC2 (centres unmarked) [Tetrabenazine (Xenazine)]
TARGET: recombinant PRL-2 (Homo sapiens)
VALUE: 89

Task: Let me know recorded % Phosphatase Activity (compared to DMSO) PRL-2 for CC(=O)OCC(COC(C)=O)OC(C)=O [Triacetin] , thanks.
Result: 96

Task: Give the value of % Phosphatase Activity (compared to DMSO) PRL-2 reported for the following: CN(C)c1cc(NC(=O)CNC(C)(C)C)c(O)c2c1C[C@H]1C[C@H]3[C@H](N(C)C)C(O)=C(C(N)=O)C(=O)[C@@]3(O)C(O)=C1C2=O [Tigecycline]
Result: 45

Task: Name the recorded % Phosphatase Activity (compared to DMSO) PRL-2 of the molecule listed here: CN1CCN(c2nc(C3=C(c4c[nH]c5ccccc45)C(=O)NC3=O)c3ccccc3n2)CC1 [Sotrastaurin]
Result: 89

###

Each item that follows carries a reported % Phosphatase Activity (compared to DMSO) PRL-3.
- TARGET: recombinant PRL-3 (Homo sapiens)
- Construct: 6xHis (N, cleaved yes); made in house; host or cells: E. coli One Shot BL21 Star
- Sequence (O75365 whole entry): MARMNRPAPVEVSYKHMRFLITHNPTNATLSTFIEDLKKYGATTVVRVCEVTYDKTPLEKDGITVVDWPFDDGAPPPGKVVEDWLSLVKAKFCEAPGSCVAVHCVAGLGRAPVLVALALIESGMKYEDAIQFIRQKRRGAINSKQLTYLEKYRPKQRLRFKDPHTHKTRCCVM
- PROTOCOL_TEXT: In vitro phosphatase assay (DiFMUP hydrolysis), PRL-3; note: test concentration or dose not given here
- Format: biochemical
- PARTICULARS: FDA-approved drug screen; compared to DMSO
Structures can show the parent of a compound that is named as a salt.
Your answer is read as %, so omit the unit and give the number.

COMPOUND: CC(=O)CCCCn1c(=O)c2c(ncn2C)n(C)c1=O
VALUE: 92
--
COMPOUND: Cc1nc(Nc2ncc(C(=O)Nc3c(C)cccc3Cl)s2)cc(N2CCN(CCO)CC2)n1 [Dasatinib]
VALUE: 81
--
COMPOUND: CC(C(=O)O)c1ccc(-c2ccccc2)c(F)c1 (centres unmarked)
VALUE: 73
--
COMPOUND: N=C(N)NC(=O)c1nc(Cl)c(N)nc1N [Amiloride hydrochloride dihydrate]
VALUE: 220

Task: For the compound `CN(C)Cc1ccc(S(=O)(=O)n2ccc(/C=C/C(=O)NO)c2)cc1` , report % Phosphatase Activity (compared to DMSO) PRL-3.
Result: 90
